Reference for the values: patent US11597725B2

# key: entry, value: inhibition at 0.5 µM
# TARGET_DESC: hURAT1 (Homo sapiens, UniProt Q96S37)
# Sequence (Q96S37 1-553): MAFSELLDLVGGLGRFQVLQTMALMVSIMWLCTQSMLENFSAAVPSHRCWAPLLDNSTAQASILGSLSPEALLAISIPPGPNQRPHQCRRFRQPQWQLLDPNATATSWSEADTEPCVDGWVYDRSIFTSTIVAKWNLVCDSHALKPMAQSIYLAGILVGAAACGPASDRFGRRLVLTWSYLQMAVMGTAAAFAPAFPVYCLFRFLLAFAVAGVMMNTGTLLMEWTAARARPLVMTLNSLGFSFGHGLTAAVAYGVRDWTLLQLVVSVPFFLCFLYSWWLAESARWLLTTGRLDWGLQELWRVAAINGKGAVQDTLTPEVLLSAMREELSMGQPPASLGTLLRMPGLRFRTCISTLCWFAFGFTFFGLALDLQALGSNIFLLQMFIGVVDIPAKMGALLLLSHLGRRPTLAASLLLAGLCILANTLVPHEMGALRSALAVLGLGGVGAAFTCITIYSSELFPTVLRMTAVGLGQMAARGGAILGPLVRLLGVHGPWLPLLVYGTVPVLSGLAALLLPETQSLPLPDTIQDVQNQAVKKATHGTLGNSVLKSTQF
# TEST_DETAILS: Inhibition assay of uric acid transport in HEK293-hURAT1 transfection cell line (14C-uric acid uptake)
# Format: cell-based
# COND: compound concentration 500 nM; HEK293-hURAT1 stable cells; 14C-uric acid; mean of three tests ±SD; read-out: Inhibition rate of uric acid transport, ±SD (%)
I'd appreciate it if you wrote the number followed by its unit.

// solved cases for inhibition at 0.5 µM follow
{"MOLECULE": "CCc1nc2n(c1C(=O)c1cc(Br)c(O)c(Br)c1)CCC(O)C2 (centres unmarked)", "ASSAY_ENDPOINT": "inhibition at 0.5 µM", "OBSERVED": "47.5%"}
{"MOLECULE": "CCc1nc2n(c1C(O)c1cc(Br)c(O)c(C#N)c1)CCCC2 (centres unmarked)", "ASSAY_ENDPOINT": "inhibition at 0.5 µM", "OBSERVED": "42.3%"}
{"MOLECULE": "CCc1nc2n(c1C(O)c1cc(Br)c(O)c(Br)c1)CCCC2 (centres unmarked)", "ASSAY_ENDPOINT": "inhibition at 0.5 µM", "OBSERVED": "47.6%"}
{"MOLECULE": "CCc1nc2n(c1C(=O)c1cc(Br)c(O)c(Br)c1)CCCC2", "ASSAY_ENDPOINT": "inhibition at 0.5 µM", "OBSERVED": "53.4%"}

Return reported inhibition at 0.5 µM; argument: `CCc1nc2n(c1C(=O)c1cc(Br)c(O)c(C#N)c1)CCCC2`
47.5%
